FYI, the data here is from patent US20170240926.

# target.under.test: FTase (protein farnesyltransferase) (UniProt P49354)
No end group written: not given here. *: point of attachment. Dansyl = CN(C)c1cccc2c(S(=O)(=O)*)cccc12
Please respond with reported pKd for every item in the list.
The scale used: pKd is minus the common logarithm of the concentration in molar units.

Item Dansyl-TKCTLA [dansyl-TKCTLA] has what recorded pKd? 8.36

Recorded pKd of Dansyl-TKCNLT [dansyl-TKCNLT] , please. 8.43

What does the record list as pKd for Dansyl-TKCLLM [dansyl-TKCLLM] ? 8.33

Please give the measured pKd for this binder: Dansyl-TKCGIM [dansyl-TKCGIM] 8.44

So what does the record say about pKd for Dansyl-TKCLIT [dansyl-TKCLIT] ? 8.39

What measured pKd goes with Dansyl-TKCSLG [dansyl-TKCSLG] ? 8.47

Requested field: pKd. Item: Dansyl-TKCNLQ [dansyl-TKCNLQ] 8.10

So what's the measured pKd for this one? Dansyl-TKCVLA [dansyl-TKCVLA] 8.34
